# system.tested: T1, His-LXRβ/FLAG-RXRα heterodimer (ligand binding domains of human LXRβ and human RXRα) (human) (UniProt P55055)
# T1 sequence 1: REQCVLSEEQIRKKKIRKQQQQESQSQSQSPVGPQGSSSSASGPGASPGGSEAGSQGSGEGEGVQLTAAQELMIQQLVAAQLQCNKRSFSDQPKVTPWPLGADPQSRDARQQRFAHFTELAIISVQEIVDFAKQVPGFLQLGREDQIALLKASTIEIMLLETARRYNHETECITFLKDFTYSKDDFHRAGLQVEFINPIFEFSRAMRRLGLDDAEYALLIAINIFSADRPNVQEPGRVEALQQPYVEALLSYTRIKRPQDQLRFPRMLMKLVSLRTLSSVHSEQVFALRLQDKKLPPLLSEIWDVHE
# T1 sequence 2: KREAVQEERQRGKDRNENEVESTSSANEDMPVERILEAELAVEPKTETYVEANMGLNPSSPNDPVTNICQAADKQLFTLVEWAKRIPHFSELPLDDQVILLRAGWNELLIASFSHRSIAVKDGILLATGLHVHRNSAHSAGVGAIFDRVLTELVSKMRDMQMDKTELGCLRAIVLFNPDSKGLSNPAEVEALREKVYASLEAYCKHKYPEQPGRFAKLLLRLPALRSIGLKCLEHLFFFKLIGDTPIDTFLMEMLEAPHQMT
# protocol.summary: FRET (665/620 nm), anti-His tag antibody + streptavidin, biotinylated peptide; with Compound B, relative to DMSO-only control
No end group written: not given here. *: point of attachment. Biotin = O=C1N[C@H]2[C@H](CS[C@H]2CCCCC(=O)*)N1
metric.name: % of control

Reference set, count: 2
Biotin-NKDVTLTSPLLVNLLQSDISAGHFGVNNKQ [ASC-2 NR-1 peptide … (LXXLL motif on the N-terminal side of ASC-2)] ... 115 % of control
Biotin-HGTSLKEKHKILHRLLQDSSSPVDL [TIF2 peptide … (aa 679-703)] ... 114 % of control

Here's the next entry for you.
Task: State the recorded % of control for this entry: Biotin-KESKDHQLLRYLLDKDEKDL [SRC-1-3 peptide … (the third LXXLL motif from the N-terminal side of SRC-1)]
Result: 108 % of control
